# binding ratio at 3.7 nM vs NIH3T3 values compiled below
# Test System: T1, human CD63 (human, UniProt P08962 2-238)
# T1 construct: stably transfected in NIH3T3/hCD63; The cell line is named under assay; also called hCD63
# T1 sequence: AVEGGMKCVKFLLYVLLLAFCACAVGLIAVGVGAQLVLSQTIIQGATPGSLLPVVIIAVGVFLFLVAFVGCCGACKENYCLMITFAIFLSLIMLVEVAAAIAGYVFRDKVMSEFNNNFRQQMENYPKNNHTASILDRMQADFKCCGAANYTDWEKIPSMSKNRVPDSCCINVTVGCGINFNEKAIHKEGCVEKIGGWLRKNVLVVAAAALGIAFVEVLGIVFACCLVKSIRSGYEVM
# Assay Explanation: ECL, U87MG cells
Readout Name: binding ratio at 3.7 nM vs NIH3T3 (fold)

H2M12385N (antibody, V domains shown, also called H2bM12385N; H2bM12385) VH: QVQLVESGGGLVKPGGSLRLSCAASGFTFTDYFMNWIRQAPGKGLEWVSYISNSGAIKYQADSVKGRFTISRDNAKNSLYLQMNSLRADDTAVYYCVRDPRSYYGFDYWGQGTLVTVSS VL: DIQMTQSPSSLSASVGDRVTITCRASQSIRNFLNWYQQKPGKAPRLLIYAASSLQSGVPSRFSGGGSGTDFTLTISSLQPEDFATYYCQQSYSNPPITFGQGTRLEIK :: 47
H1M12451N (antibody, V domains shown) VH: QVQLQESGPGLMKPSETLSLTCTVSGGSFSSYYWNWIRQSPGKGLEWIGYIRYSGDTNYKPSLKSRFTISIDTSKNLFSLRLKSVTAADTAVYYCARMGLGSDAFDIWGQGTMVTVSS VL: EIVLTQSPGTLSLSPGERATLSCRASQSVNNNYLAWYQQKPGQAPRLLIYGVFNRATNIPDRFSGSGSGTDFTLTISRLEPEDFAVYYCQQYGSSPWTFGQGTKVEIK :: 171
